Reported pKd values for the following binders.
# TARGET SYSTEM: T1, RSV F ectodomain stabilized in the postfusion conformation (F ΔFP), subtype B (Respiratory syncytial virus subtype B, UniProt P13843 26-109; P13843 147-524)
# T1 construct: extracellular domain; trimer; also called Postfusion subtype B; postF subtype B
# ASSAY SUMMARY: BLI, IgG on AHQ sensor, 100 nM antigen
pKd: −log10 of the molar value.
MEASURED QUANTITY: pKd

binder="ADI-14492 (antibody, V domains shown, full-length IgG (yeast-expressed); also called Antibody Number 53; Ab# 53) VH: EVQLVESGGGLVRPGGSLGLSCSASGFIFSNAWMTWVRQAPGKGLEWVGHIKSKVNGGTTAYGAPVKGRFTISRDDSRNTLFLQMNSLKTEDTGVYYCTTGPPYQYFDDSGYSVVDYWGQGTLVTVSS VL: QSVVTQPPSASGTPGQRVTISCSGSDSNIGTDYFYWYQQLPGSAPKLLIYGSNQRPSGVPDRFSGSQSGSAASLAISGLRSEDDADYYCAAWDDSLGGPVFGGGTKVTVL" val=9.95
binder="ADI-14500 (antibody, V domains shown, full-length IgG (yeast-expressed); also called Antibody Number 61; Ab# 61) VH: EVQLLESGGGLVKPGGSLRLSCAASGFIFNNAWMTWVRQAPGRGLEWVGRIKTNADGGTADYSTPVKGRFAISRDDSTNTLYLQMNSLKTEDTAVYYCTTGPPYKYSDSTGYSVVDYWGQGTLVTVSS VL: SYELTQPPSASGTPGQRVTISCSGSSSNIGSNYVYWYQQLPGTAPKLLIYSTNQRPSGVPDRFSGSQSGTSASLAISGLRSEDEADYYCAAWDDRLSGPVFGGGTQLTVL" val=9.90

Data origin: patent US20250313612A1
